# Tested system: α7/5-HT3 Chimeric Ligand Gated Ion Channel (Homo sapiens, UniProt P36544, M226I/T225I)
# Construct: expressed in transfected cells
# Sequence (P36544 with tags, fused parts or gaps T225I/M226I): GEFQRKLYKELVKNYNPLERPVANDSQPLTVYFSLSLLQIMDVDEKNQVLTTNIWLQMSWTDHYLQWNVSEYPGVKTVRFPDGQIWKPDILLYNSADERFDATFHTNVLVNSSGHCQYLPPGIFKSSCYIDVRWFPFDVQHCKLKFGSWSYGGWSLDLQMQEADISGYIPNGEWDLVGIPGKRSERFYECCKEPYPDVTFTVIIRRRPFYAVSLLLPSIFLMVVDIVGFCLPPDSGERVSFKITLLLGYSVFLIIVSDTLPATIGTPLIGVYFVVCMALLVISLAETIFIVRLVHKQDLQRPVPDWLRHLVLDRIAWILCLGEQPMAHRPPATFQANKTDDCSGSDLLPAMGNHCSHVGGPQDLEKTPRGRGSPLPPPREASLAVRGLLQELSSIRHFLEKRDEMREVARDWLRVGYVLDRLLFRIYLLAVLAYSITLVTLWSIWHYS
# Type: binding, human α7 / mouse 5-HT3
# Experimental context: read-out: Fitc-α-Bungoarotoxin Binding (30 nM) IC50
Assign pIC50 to each entry below.
Answers are plain numbers, as −log10 of the molar value.

Known results for compounds:
CCN1C[C@]2(COC(=O)c3ccccc3N3C(=O)C[C@H](C)C3=O)CC[C@H](OC)[C@@]34[C@@H]5C[C@H]6[C@H](OC)[C@@H]5[C@](O)(C[C@@H]6OC)[C@](O)([C@@H](OC)[C@H]23)[C@@H]14 [Methyllcaconitine (MLA), Methyllcaconitine]	7.59
Cc1cc([C@@H]2CCCN2C)on1 [ABT-418]	4.42

In the following, a different compound is considered.
For the compound Clc1ccc([C@@H]2C[C@H]3CC[C@@H]2N3)cn1 (racemic) [(+/−) Epibatidine] , report pIC50.
7.05

---

# Tested system: α7/5-HT3 Chimeric Ligand Gated Ion Channel (Homo sapiens, UniProt P36544, M226I/T225I)
# Experimental context: read-out: Ki, competition for Fl-btx binding
Endpoint label: pKi
Answers are plain numbers, as −log10 of the molar value.

Jot down pKi (α7/5-HT3 Chimeric Ligand Gated Ion Channel (Homo sapiens, UniProt P36544, M226I/T225I)) of Clc1ccc([C@@H]2C[C@H]3CC[C@@H]2N3)cn1 (racemic) [(+/−) Epibatidine] .
7.05
